Below: a set of entries, each annotated with reported pKd.
target: T1, recombinant CD40 ECD-Fc fusion protein (UniProt P25942 21-193, limits assumed, biotinylated (site not stated)); assay: BLI (Octet), biotinylated CD40 ECD-Fc captured on streptavidin probe, antibody in solution
T1 construct: extracellular domain; also called biotinylated CD40 ECD-Fc; not shown: Fc
T1 sequence (P25942 21-193 limits assumed): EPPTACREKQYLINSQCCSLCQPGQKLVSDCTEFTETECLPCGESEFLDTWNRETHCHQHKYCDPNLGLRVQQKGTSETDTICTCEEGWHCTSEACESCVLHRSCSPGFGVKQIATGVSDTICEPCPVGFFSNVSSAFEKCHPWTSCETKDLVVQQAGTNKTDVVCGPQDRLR
pKd: −log10 of the molar value.
Readout: pKd

>>> endpoint_result("Antibody clone 5 (antibody, V domains shown, Rabbit monoclonal antibody; also called 5H2/5L2) VH: QSVKESGGGLFKPTDTLTLTCTVSGFSLSSNAISWVRQAPGKGLEWIGIIYASGDTYYASWAKGRFTISKTSSTTVDLKMTSLTTEGTATYFCARGYTTLYFWGPGTLVTVSS VL: QIVMTQTPASVSAAVGGTVTIKCQASESISTRLAWYQQKPGQPPKLLIYSASTLPSGVPSRFSGSGSGTDFTLTISGVQCDDAATYYCQGGYSSGAGTAFGGGTEVVVK")
11.22
>>> endpoint_result("Antibody clone 6 (antibody, V domains shown, Rabbit monoclonal antibody; also called 6H2/6L2) VH: QSLEESGGRLVTPGTPLTLTCTASGFDFSRYHMCWVRQAPGKGLEWIGIIYVSDNTYYATWAKGRFTISRTSTTVDLKITSPTTEDTATYFCVRVGSFWSSKLWGPGTLVTVSS VL: DVVMTQTPASVSEPVGGTVTINCQASENIYSSLAWYQQKPGQPPKLLIYEASNLESGVSSRFSGSGSGTEFTLTISDLECADAATYYCQSTYFGNSYVFAFGGGTEVVVK")
9.42
>>> endpoint_result("Antibody clone 166 (antibody, V domains shown, Rabbit monoclonal antibody; also called 166H2/166L1) VH: QSLEESGGRLVTPGTPLTLTCTASGFDLSRYHMNWVRQAPGKGLEWIGIIYVSDDSYYASWAKGRFTISKTSTAVDLKITSPTTEDTATYFCARVGSVWSSKLWGPGTLVTVSS VL: DVVMTQTPASVSEPVGGTVTIKCQASENIYNNLAWYQQKPGQPPKLLIYRASTLESGVPSRFKGSGSGTEFTLTISDLECADAATYYCQSTYFGGSYVFAFGGGTEVVVK")
9.38
